targetSystem: IRAK4(h) (Homo sapiens, UniProt Q9NWZ3)
Construct: purchased Caliper Life Sciences
Sequence (Q9NWZ3 1-460): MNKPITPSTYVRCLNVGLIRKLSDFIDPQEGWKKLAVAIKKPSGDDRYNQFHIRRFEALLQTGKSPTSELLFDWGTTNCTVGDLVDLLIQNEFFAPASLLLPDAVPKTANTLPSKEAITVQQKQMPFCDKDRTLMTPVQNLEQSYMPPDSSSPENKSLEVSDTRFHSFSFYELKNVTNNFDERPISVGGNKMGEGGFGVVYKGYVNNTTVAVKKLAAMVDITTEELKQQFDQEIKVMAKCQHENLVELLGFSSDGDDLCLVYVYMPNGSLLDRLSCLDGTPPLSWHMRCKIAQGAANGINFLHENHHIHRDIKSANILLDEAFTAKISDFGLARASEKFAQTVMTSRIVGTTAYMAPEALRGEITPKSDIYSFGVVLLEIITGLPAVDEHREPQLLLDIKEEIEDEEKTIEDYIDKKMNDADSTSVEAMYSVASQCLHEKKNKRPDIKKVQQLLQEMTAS
protocolDescription: Other kinases, single-concentration inhibition (Table 3)
Format: biochemical
measurementParameters: 1 μM
propertyName: % inhibition IRAK4(h) (%)
The answer is to be given in %; state only the numeric part.

>  <compound>
CC[C@@H]1C[C@@H]2CCCOc3cccc(c3)Nc3ncc(F)c(n3)N[C@H]2[C@H]1C(N)=O (single isomer, unassigned)

>  <% inhibition IRAK4(h) [%]>
81

$$$$
>  <compound>
C=C[C@@H]1C[C@@H]2/C=C/COc3cccc(c3)Nc3ncc(F)c(n3)N[C@H]2[C@H]1C(N)=O (single isomer, unassigned)

>  <% inhibition IRAK4(h) [%]>
82

$$$$
>  <compound>
NC(=O)[C@H]1[C@H]2C[C@H]3[C@H]1Nc1nc(ncc1F)Nc1cccc(c1)OCCS[C@@H]3C2

>  <% inhibition IRAK4(h) [%]>
12

$$$$
>  <compound>
CN1CCN(c2ccc3cc2NC(=O)CS[C@@H]2C[C@@H]4C[C@H]2[C@@H](Nc2nc(ncc2F)N3)[C@H]4C(N)=O)CC1

>  <% inhibition IRAK4(h) [%]>
19

$$$$
>  <compound>
NC(=O)[C@H]1[C@H]2C[C@H]3[C@H]1Nc1nc(ncc1F)Nc1cccc(c1)CSS[C@@H]3C2

>  <% inhibition IRAK4(h) [%]>
3

$$$$

Okay, next one:
Recorded % inhibition IRAK4(h) of "N#Cc1ccc2cc1NC(=O)CS[C@@H]1C[C@@H]3C[C@H]1[C@@H](Nc1nc(ncc1F)N2)[C@H]3C(N)=O" , please.
43
